biological target: T1, human CD3e/g antigen (ACRO, catalog number CDG-H52W5) (human, UniProt P07766 23-126; P09693 23-116); assay: SPR (Biacore 8K), antibody captured via anti-human Fc
T1 construct: Bought reagent used as the Biacore analyte; also called hCD3e/g
T if koff is below 0.005 s⁻¹. F if not; exact matches included in F.

Task: Take the binder hAb008-17 (antibody, V domains shown, Humanized; constant regions not specified) VH: QVQLVQSGAEVKKPGASVKVSCKASGYTFTDYTVNWVRQAPGQRLEWMGYINPFNSYTKYNQKFKDRVTITRDTSASTAYMELSSLRSEDTAVYYCARSVSTYWGQGTTVTVSS VL: DVVMTQSPLSLPVTLGQPASISCKSSQSLLDSDGKTYLNWFQQRPGQSPRRLIQLVSKLNSGVPDRFSGSGSGTDFTLKISRVEAEDVGVFYCWQGTHFPRTFGGGTKLEIK and say whether its koff is less than 0.005 s⁻¹.
Output: T

Task: Take the binder hAb007-18 (antibody, V domains shown, Humanized; constant regions not specified) VH: QVQLVQSGAEVKKPGASVKVSCKASGSTFTDNYIHWVRQAPGQRLEWMGWIYPGSVNIKYNEKFKDRVTITRDTSASTAYMELSSLRSEDTAVYYCARDISRYYFDYWGQGTTVTVSS VL: DIVMTQSPDSLAVSLGERATINCKSSQSLLNSRTRKNYLAWYQQKPGQPPKLLIYWASTRESGVPDRFTGSGSGTDFTLTISSLQAEDVAVYYCKQSFILRTFGGGTKLEIK and say whether its koff is less than 0.005 s⁻¹.
Output: T

Task: Take the binder hAb007-17 (antibody, V domains shown, Humanized; constant regions not specified) VH: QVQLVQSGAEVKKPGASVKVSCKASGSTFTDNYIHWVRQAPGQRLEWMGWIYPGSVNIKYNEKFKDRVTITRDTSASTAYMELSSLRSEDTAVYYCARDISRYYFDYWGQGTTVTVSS VL: DIVMTQSPDSLAVSLGERATINCKSSQSLLNSRTRKNYLAWYQQKPGQPPKLLIYWASTRESGVPDRFSGSGSGTDFTLTISSLQAEDVAVYYCKQSFILRTFGGGTKLEIK and say whether its koff is less than 0.005 s⁻¹.
Output: T

Task: Take the binder hAb007-27 (antibody, V domains shown, Humanized; constant regions not specified) VH: QVQLVQSGAEVKKPGASVKVSCKASGSTFTDNYIHWVRQAPGQRLEWIGWIYPGSVNIKYNEKFKDRATITADTSASTAYMELSSLRSEDTAVYYCARDISRYYFDYWGQGTTVTVSS VL: DIVMTQSPDSLAVSLGERATMNCKSSQSLLNSRTRKNYLAWYQQKPGQPPKLLIYWASTRESGVPDRFSGSGSGTDFTLTISSLQAEDVAVYYCKQSFILRTFGGGTKLEIK and say whether its koff is less than 0.005 s⁻¹.
Output: T

Task: Take the binder hAb008-22 (antibody, V domains shown, Humanized; constant regions not specified) VH: QVQLVQSGAEVKKPGASVKVSCKASGYTFTDYTVNWVRQAPGQRLEWIGYINPFNSYTKYNQKFKDRVTITADTSASTAYMELSSLRSEDTAVYYCANSVSTYWGQGTTVTVSS VL: DVVMTQSPLSLPVTLGQPASISCKSSQSLLDSDGKTYLNWLQQRPGQSPRRLIQLVSKLNSGVPDRFSGSGSGTDFTLKISRVEAEDVGVFYCWQGTHFPRTFGGGTKLEIK and say whether its koff is less than 0.005 s⁻¹.
Output: F

Task: Take the binder hAb007-32 (antibody, V domains shown, Humanized; constant regions not specified) VH: QVQLVQSGAEVKKPGASVKVSCKASGSTFTDNYIHWVKQAPGQRLEWIGWIYPGSVNIKYNEKFKDRATITADTSATTAYMELSSLRSEDTAVYYCARDISRYYFDYWGQGTTVTVSS VL: DIVMTQSPDSLAVSLGERATMNCKSSQSLLNSRTRKNYLAWYQQKPGQPPKLLIYWASTRESGVPDRFTGSGSGTDFTLTISSLQAEDVAVYYCKQSFILRTFGGGTKLEIK and say whether its koff is less than 0.005 s⁻¹.
Output: T

Task: Take the binder hAb001-31 (antibody, V domains shown, Humanized; constant regions not specified) VH: QVQLVQSGAEVKKPGASVKVSCKASGYSFTNYYMHWVKQAPGQRLEWIGWTYPGNNNIKYNEKFKGRATITADTSASTAYMELSSLRSEDTAVYYCARDGYGYYFFDYWGQGTLVTVSS VL: DIVMTQSPDSLAVSLGERATMSCKSSQSLLNNRTRKNYLAWYQQKPGQPPKLLIYWASTRESGVPDRFSGSGSGTDFTLTISSLQAEDVAVYYCKQSYTLRTFGGGTKLEIK and say whether its koff is less than 0.005 s⁻¹.
Output: F

Task: Take the binder hAb008-21 (antibody, V domains shown, Humanized; constant regions not specified) VH: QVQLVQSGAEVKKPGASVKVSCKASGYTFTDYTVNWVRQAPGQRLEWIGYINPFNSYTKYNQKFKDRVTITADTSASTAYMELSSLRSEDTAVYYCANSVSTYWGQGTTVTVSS VL: DVVMTQSPLSLPVTLGQPASISCKSSQSLLDSDGKTYLNWFQQRPGQSPRRLIQLVSKLNSGVPDRFSGSGSGTDFTLKISRVEAEDVGVFYCWQGTHFPRTFGGGTKLEIK and say whether its koff is less than 0.005 s⁻¹.
Output: T

Task: Take the binder hAb008-25 (antibody, V domains shown, Humanized; constant regions not specified) VH: QVQLVQSGAEVKKPGASVKVSCKASGYTFTDYTVNWVRQAPGQRLEWIGYINPFNSYTKYNQKFKDRATITADTSASTAYMELSSLRSEDTAVYFCANSVSTYWGQGTTVTVSS VL: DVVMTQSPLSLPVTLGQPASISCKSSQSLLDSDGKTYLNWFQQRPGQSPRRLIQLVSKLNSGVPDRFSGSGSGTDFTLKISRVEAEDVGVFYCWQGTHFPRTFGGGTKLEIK and say whether its koff is less than 0.005 s⁻¹.
Output: F
